tested on: HT29 colon; test: NCI tumour cell line growth inhibition, 48 h
Reported TGI by item:

Please review the following examples before continuing.
{"columns": ["COMPOUND", "TARGET OF ASSAY", "PROPERTY", "MEASUREMENT"],
 "data": [
  ["NC(=S)N/N=C/c1ccc(N)cn1", "HT29 colon", "TGI", "> 10 µM"],
  ["CC(C)(CCN=C(N)Nc1ccccn1)c1ccc(C(F)(F)F)cc1", "HT29 colon", "TGI", "24 µM"],
  ["N#CCCN(CCC#N)c1ccc(C(N=Nc2ccccc2)=Nc2ccc(Cl)cc2)cc1", "HT29 colon", "TGI", "> 100 µM"]
]}

Q) Record lookup: for HT29 colon, what TGI belongs to COC(=O)C1=Cc2cc(OC)c(OC)cc2[C@H](c2ccc(OC)c(OC)c2)C1C(=O)OC (stereo partly specified) ?
A) > 100 µM

Q) Also `COc1ccc(/C=C/C(=N/NC(=O)N/N=C(/C=C/c2ccc(OC)cc2)C(C)(C)CN2CCCCC2)C(C)(C)CN2CCCCC2)cc1` ?
A) 3.11 µM

Q) Also `COc1cc(/C=C2\Oc3cc(OCCCN4CCCC4)ccc3C2=O)cc(OC)c1` ?
A) 8.69 µM

Q) Also CCOC(=O)NC(C(=O)OCC)(N1CCN(c2cc3c(cc2F)c(=O)c(C(=O)O)cn3CC)CC1)C(F)(F)F (stereo unspecified) ?
A) > 100 µM

Q) Also `CCOC(=O)c1ccc2c(c1)nc(/C=C/c1ccc(Cl)cc1)n2-c1cc(C(C)(C)C)[nH]n1` ?
A) > 100 µM

Q) Also `CCN1C(=O)/C(=C2\SC(c3ccccc3)(c3ccccc3)c3ccccc32)SC1=S` ?
A) > 100 µM

Q) Also `O=C1C(=O)c2ccccc2C(O)=C1CCCc1ccc(C2CCCC2)cc1` ?
A) 19.5 µM

Q) Also `Cc1c(-c2ccccc2)c(C#N)c2nnn(C3CCCCC3)c(=O)n12` ?
A) > 100 µM
